Data provenance is patent EP0289604A1.

assay: in vivo; conditions: mouse, ip, white outbred mice, intraperitoneal administration
attribute-measured: LD50

Exercise: Which measured LD50 value corresponds to CSC1=C(C#N)C(c2ccccc2OC(F)F)C=C(c2ccccc2)N1 (stereo not shown) [Die erfindungsgemässe Verbindung] ?
Solution: > 5000 mg/kg
